Entries with their measured Log AC50 (M), system Vero cells:
Give the number; M is assumed, so skip it.

As a guide, the following entries are already answered.
// query Log AC50 (M) value for entry COC(=O)C1=C(C)NC(C)=C(C(=O)OCCN(C)Cc2ccccc2)C1c1cccc([N+](=O)[O-])c1 (stereo not drawn)
-4.4327

Same question for CCNC(=O)c1noc(-c2cc(C(C)C)c(O)cc2O)c1-c1ccc(CN2CCOCC2)cc1 please.
-4.4327

Same question for CC(=O)OC1C=C(CO)C(=O)C(OC(=O)CC(C)C)C1C(C)C (stereo not drawn) please.
-4.4327

---
// query Log AC50 (M) value for entry CC(C)C[C@H](NC(=O)[C@H](CCc1ccccc1)NC(=O)CN1CCOCC1)C(=O)N[C@@H](Cc1ccccc1)C(=O)N[C@@H](CC(C)C)C(=O)[C@@]1(C)CO1
-5.6327

Same question for CCCCc1oc2ccccc2c1C(=O)c1cc(I)c(OCCN(CC)CC)c(I)c1 please.
-4.7327
